These entries and their values trace back to patent US20250082630A1.

pIC50: −log10 of the molar value.
// values below are pIC50; system is PARP2 (Homo sapiens (Human))
Sequence (Q9UGN5 whole entry): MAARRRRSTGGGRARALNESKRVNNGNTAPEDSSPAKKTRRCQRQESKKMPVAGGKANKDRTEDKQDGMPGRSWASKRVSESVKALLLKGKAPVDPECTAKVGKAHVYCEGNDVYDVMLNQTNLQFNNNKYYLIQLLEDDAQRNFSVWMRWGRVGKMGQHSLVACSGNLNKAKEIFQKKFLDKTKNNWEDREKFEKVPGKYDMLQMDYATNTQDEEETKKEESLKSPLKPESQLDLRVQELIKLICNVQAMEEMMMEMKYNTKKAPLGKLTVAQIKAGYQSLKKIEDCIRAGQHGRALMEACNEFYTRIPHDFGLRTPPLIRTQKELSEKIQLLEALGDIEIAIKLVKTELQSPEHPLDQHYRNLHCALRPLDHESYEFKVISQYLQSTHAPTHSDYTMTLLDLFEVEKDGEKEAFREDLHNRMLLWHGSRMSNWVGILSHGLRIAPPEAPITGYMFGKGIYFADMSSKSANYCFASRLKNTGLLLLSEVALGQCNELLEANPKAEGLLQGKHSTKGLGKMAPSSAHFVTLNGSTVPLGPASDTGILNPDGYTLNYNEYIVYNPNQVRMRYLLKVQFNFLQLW

Cc1nc2ccc(CN3CCN(c4ccc(C(N)=O)nc4F)CC3)c(F)c2[nH]c1=O : 4.06
CNC(=O)c1ccc(N2CCN(Cc3ccc4nc(C(C)F)c(=O)[nH]c4c3F)CC2)c(C)n1 (single isomer, unassigned) [Example 14] : < 4.08
CNC(=O)c1ccc(N2CCN(Cc3ccc4ncc(=O)[nH]c4c3F)CC2)c(C)n1 : < 4.00
CNC(=O)c1ccc(N2CCN(Cc3ccc4nc(C)c(=O)[nH]c4c3F)CC2)c(C(F)F)n1 : < 4.00
CCc1nc2ccc(CN3CCN(c4ccc(C(=O)NC)nc4C)CC3)c(F)c2[nH]c1=O : < 4.17

Item under review: CNC(=O)c1ccc(N2CCN(Cc3ccc4nc(C)c(=O)[nH]c4c3C)CC2)c(C)n1 . Reported pIC50?
< 4.08

Another molecule to look at: CNC(=O)c1ccc(N2CCN(Cc3ccc4nc(OC)c(=O)[nH]c4c3C)CC2)c(C)n1
< 4.00

Another molecule to look at: CNC(=O)c1ccc(N2CCN(Cc3ccc4nc(OC)c(=O)[nH]c4c3F)CC2)c(C)n1
< 4.00

---

# system.name: PARP1 (Homo sapiens (Human), UniProt P09874)
# Sequence (P09874 whole entry): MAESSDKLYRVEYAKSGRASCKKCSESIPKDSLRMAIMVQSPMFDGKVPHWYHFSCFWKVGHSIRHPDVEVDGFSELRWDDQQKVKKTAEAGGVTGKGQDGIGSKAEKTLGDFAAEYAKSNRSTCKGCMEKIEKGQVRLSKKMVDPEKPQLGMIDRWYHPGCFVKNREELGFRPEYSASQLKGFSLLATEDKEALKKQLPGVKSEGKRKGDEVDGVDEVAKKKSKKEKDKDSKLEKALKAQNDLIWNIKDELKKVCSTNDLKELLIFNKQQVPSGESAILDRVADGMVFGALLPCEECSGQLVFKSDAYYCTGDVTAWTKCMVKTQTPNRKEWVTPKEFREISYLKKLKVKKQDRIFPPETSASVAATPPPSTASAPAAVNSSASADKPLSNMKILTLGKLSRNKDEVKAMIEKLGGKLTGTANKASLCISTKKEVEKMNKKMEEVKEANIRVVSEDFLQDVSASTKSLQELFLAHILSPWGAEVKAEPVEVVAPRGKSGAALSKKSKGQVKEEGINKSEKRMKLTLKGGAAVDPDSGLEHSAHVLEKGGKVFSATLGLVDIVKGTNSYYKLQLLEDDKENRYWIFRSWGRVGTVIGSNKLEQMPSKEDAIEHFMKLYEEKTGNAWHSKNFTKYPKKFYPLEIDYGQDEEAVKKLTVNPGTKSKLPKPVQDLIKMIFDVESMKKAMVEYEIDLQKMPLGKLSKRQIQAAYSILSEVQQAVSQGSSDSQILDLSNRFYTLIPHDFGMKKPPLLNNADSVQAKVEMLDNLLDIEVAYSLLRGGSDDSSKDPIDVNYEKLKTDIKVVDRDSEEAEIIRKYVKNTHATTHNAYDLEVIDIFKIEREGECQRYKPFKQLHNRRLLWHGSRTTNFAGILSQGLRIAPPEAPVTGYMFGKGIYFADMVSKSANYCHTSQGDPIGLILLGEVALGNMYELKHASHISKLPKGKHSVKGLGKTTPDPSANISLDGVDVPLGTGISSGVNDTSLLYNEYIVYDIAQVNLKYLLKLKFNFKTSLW
# test.protocol: PARP fluorescence anisotropy binding assay, PARP1
assay.metric: IC50 (nM)

CNC(=O)c1ccc(N2CCN(Cc3ccc4nc(OC)c(=O)[nH]c4c3C)CC2)c(C(F)F)n1 : 6

1 = CCc1nc2ccc(CN3CCN(c4ccc(C(=O)NC)nc4)CC3)c(Cl)c2[nH]c1=O
2 = CNC(=O)c1ccc(N2CCN(Cc3ccc4nc(OC)c(=O)[nH]c4c3F)CC2)c(F)n1
3 = CNC(=O)c1ccc(N2CCN(Cc3ccc4nc(C(F)F)c(=O)[nH]c4c3F)CC2)c(C)n1
rank_up(items): orders items by reported IC50 in ascending numerical order. Your answer should be the labels, listed in the requested order.
2, 1, 3
(2: 6 nM, 1: 13 nM, 3: 26 nM)

A = CCc1nc2ccc(CN3CCN(c4ccc(C(=O)NC)nc4)CC3)c(C)c2[nH]c1=O
B = CNC(=O)c1ccc(N2CCN(Cc3ccc4nc(C)c(=O)[nH]c4c3C)CC2)c(F)n1
Could you tell me which of A and B has the lower IC50 reading? Your answer should be the label attached to the chosen record.
B
(B: 4 nM, A: 128 nM)

---

# Tested on: BRCA2 (−/−) DLD1 cells
# test.protocol: PARP proliferation assay (7 day compound dosing), BRCA2 (−/−) DLD1
# Format: cell-based
# recorded.conditions: Homo sapiens, DLD-1, 168 h, read-out: BRCA2 −/− DLD-1 prolif. 7 d IC50
# Description: DLD1 and BRCA2 (−/−) DLD1 cells were harvested to a density of 5000 cells/ml and 2.5E4 cells/ml respectively in complete media, 40 μL/well seeded into 384-well plates (Greiner, Kremsmunster, Austria; 781090) using a Multidrop Combi then incubated at 37° C., 5% CO2 overnight. […] Read all cells on the Cell Insight with 4× Objective. The rate of proliferation is determined in Genedata by assessing the total cell number output from the Cell Insight for Day 0 and Day 8 plates.
Parameter: pIC50. Scope: all listed entries.
Formally, pIC50 is defined as -log10 of the concentration c, with c in mol/L.

CNC(=O)c1ccc(N2CCN(Cc3ccc4nc(C)c(=O)[nH]c4c3F)CC2)c(F)n1 : 8.10

Let's switch to this compound now.
API: value(readout=pIC50, system=BRCA2 (−/−) DLD1 cells) for record CNC(=O)c1ccc(N2CCN(Cc3ccc4nc(C)c(=O)[nH]c4c3F)CC2)c(C)n1
8.15
